ASSAYED_TARGET: Ephrin type-A receptor 3 (Homo sapiens) (UniProt P29320)
Sequence (P29320 whole entry): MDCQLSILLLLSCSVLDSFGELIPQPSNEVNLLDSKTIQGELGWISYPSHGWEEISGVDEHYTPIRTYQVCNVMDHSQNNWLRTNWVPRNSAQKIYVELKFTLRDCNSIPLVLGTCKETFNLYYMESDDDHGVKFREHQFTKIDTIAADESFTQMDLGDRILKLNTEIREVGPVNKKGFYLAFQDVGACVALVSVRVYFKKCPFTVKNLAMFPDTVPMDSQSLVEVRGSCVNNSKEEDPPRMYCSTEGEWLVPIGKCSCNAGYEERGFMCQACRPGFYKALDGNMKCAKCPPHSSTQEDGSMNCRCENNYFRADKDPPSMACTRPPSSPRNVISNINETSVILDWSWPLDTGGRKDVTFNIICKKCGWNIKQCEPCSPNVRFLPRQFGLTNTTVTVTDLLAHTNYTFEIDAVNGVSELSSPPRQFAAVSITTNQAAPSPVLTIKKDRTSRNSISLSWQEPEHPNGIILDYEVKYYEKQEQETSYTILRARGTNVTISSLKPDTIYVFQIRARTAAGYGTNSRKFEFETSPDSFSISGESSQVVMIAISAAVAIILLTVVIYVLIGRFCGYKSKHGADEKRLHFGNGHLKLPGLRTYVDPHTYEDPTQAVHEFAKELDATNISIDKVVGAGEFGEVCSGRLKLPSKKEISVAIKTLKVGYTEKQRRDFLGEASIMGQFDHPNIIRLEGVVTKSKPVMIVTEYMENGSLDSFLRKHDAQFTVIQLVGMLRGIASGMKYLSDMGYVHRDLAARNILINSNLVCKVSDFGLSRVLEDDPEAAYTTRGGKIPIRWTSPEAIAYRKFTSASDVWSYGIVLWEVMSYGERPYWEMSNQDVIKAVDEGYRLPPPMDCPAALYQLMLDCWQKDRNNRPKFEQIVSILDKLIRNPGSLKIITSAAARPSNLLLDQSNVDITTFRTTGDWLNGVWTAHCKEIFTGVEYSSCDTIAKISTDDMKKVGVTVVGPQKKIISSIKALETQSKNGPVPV
PROTOCOL_CONDITIONS: at 10 µM
// label = Criterion met if residual activity is not less than 80%, otherwise Criterion not met

Exercise: Assess whether reported residual activity for CC(C)[C@H](CO)Nc1nc(Nc2cc(N)cc(Cl)c2)c2ncn(C(C)C)c2n1 sits at 80% or higher.
Solution: Criterion not met

Exercise: Test whether the molecule COc1ccc(-c2cnc3c(-c4ccsc4)cnn3c2)cc1 records residual activity of 80% or higher.
Solution: Criterion met

Exercise: # bool: residual activity of COc1cc2nccc(Oc3ccc(NC(=O)Nc4cc(C)on4)c(Cl)c3)c2cc1OC >= 80%
Solution: Criterion not met

Exercise: Quick check, residual activity >= 80%? O=C1C(Cl)=C(N2C(=O)CCC2=O)C(=O)c2ccccc21
Solution: Criterion met

====

ASSAYED_TARGET: Protein kinase C theta type (Homo sapiens) (UniProt Q04759)
Sequence (Q04759 whole entry, looked up): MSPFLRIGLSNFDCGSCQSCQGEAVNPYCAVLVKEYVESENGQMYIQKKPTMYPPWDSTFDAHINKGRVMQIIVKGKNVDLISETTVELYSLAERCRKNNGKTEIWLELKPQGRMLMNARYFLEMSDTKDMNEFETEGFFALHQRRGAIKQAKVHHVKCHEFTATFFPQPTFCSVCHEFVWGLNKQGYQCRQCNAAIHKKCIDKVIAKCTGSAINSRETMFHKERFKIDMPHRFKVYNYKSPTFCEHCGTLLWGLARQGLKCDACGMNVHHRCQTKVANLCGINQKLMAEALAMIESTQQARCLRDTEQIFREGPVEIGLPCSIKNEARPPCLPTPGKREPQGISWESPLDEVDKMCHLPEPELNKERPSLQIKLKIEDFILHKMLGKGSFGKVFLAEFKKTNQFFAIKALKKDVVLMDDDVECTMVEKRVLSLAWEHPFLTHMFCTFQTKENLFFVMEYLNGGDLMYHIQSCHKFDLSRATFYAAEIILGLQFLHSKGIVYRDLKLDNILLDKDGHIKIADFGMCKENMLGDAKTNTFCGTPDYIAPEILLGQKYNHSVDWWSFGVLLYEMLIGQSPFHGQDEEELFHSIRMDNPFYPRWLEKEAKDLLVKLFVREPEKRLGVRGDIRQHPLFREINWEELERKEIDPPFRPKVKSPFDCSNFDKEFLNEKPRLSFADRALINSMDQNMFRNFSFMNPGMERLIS
PROTOCOL_CONDITIONS: at 1 µM
Label 1.0 when residual activity is at or above 80%; anything below gets 0.0.

Exercise: Evaluate N#C/C(=C1/Nc2ccccc2S1)c1ccnc(NCCc2cccnc2)n1 : residual activity at minimum 80%?
Solution: 1.0

Exercise: API: above_or_equal(metric=residual activity, cutoff=80%) for item Cn1sc(=O)n(Cc2ccccc2)c1=O
Solution: 1.0

Exercise: Does COc1cc2nccc(Oc3ccc(NC(=S)NC(=O)c4ccccc4C)cc3)c2cc1OC have a reported residual activity of at least 80%?
Solution: 1.0

Exercise: Determine whether this compound has residual activity no lower than 80%: O=C1NC(=O)C(c2cn(CCCO)c3ncccc23)=C1c1cnccn1
Solution: 1.0

Exercise: Has NC(=O)Nc1sc(-c2ccc(F)cc2)cc1C(N)=O a recorded residual activity greater than or equal to 80%?
Solution: 1.0

Exercise: Is the recorded value of residual activity equal to or greater than 80% for this compound? O=C1C(Cl)=C(N2C(=O)CCC2=O)C(=O)c2ccccc21
Solution: 1.0

Exercise: Quick check: does O=C(NC(NC(=S)Nc1ccc(F)c([N+](=O)[O-])c1)C(Cl)(Cl)Cl)C(c1ccccc1)c1ccccc1 (stereo not given) have residual activity greater than or equal to 80%?
Solution: 1.0

Exercise: Is reported residual activity greater than or equal to 80% here: O=S(=O)(NCCNC/C=C/c1ccc(Br)cc1)c1cccc2cnccc12
Solution: 0.0

Exercise: Quick check, residual activity >= 80%? COc1ccc2c(c1)c(C1=C(c3c[nH]c4ccccc34)C(=O)NC1=O)cn2CCCN(C)C
Solution: 0.0

====

ASSAYED_TARGET: Mitogen-activated protein kinase 8 (Homo sapiens) (UniProt P45983)
Sequence (P45983 whole entry): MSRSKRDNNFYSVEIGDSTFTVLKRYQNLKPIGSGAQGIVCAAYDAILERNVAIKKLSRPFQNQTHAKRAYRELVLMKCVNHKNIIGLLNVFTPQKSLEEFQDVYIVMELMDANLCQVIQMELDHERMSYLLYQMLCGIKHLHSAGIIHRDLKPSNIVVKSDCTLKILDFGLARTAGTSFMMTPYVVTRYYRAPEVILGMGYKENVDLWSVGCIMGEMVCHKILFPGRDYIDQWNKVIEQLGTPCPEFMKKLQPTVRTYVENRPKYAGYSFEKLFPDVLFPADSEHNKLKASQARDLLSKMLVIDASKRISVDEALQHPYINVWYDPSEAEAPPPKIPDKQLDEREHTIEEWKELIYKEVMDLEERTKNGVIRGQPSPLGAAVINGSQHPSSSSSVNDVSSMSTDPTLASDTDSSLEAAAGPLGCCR
PROTOCOL_CONDITIONS: at 10 µM
Description: Millipore: Percentage of residual kinase activity of MAPK8 at 10uM relative to control. Control inhibitor: Jnk Inhibitor II at 100.0uM. Buffer: 50 mM Tris pH 7.5, 0.1 mM EGTA, 0.1% ? -mercaptoethanol
For each record, write down the corresponding residual activity.
A number alone suffices; assume %.

So for COc1cc2ncnc(Nc3cccc(Cl)c3)c2cc1OC , the logged residual activity turned out to be 122

// field: residual activity; key: CC(C)N(CCC(=O)c1ccc2ccccc2c1)Cc1ccccc1 ; value = 57

Item: COc1cc2nccc(Oc3ccc(NC(=O)Nc4cc(C)on4)c(Cl)c3)c2cc1OC | residual activity: 109

Entry O=C1NC(=O)C(c2c[nH]c3ccccc23)=C1c1c[nH]c2ccccc12 ; residual activity = 35

Please fill in: residual activity reported for c1ccc(-c2cnc(Nc3ccc(OCCN4CCCC4)cc3)s2)cc1 = 70

Measured residual activity of O=c1cc(N2CCOCC2)oc2c(-c3ccccc3)cccc12 : 79

Query Nc1ncnc2c1c(-c1ccc(Oc3ccccc3)cc1)cn2C1CCCC1 yields residual activity of 64

The recorded residual activity for CCCC(=O)Oc1ccc2[nH]c(C(=O)c3cc4ccccc4[nH]3)cc2c1 is 81

// residual activity lookup, compound = O=C(O)/C=C/c1cc(Br)c(Br)c(Br)c1Br , result: 72

So for CSc1nc(-c2ccc(F)cc2)c(-c2ccnc(NC(C)c3ccccc3)c2)[nH]1 (stereo not given) , the logged residual activity turned out to be 32

Reported residual activity ( NC(=O)Nc1sc(-c2ccc(F)cc2)cc1C(N)=O ) = 52

Value of measured residual activity for the entry N#C/C(=C1/Nc2ccccc2S1)c1ccnc(NCCc2cccnc2)n1 : 55

According to the records, this compound COc1ccc2c(c1)c(C1=C(c3c[nH]c4ccccc34)C(=O)NC1=O)cn2CCCN(C)C displays residual activity of 57

residual activity reported for this compound CN(C)S(=O)(=O)c1ccc2c(c1)/C(=C/c1cc3c([nH]1)CCCC3)C(=O)N2 : 94

Memo: Cn1c2ccccc2c2c3c(c4c5ccccc5n(CCC#N)c4c21)CNC3=O , reported residual activity: 31

Record summary for O=C1NC(=O)c2c1c1c3ccccc3[nH]c1n1cncc21 : reported residual activity = 75

residual activity in this record for COc1cc2nccc(Oc3ccc(NC(=S)NC(=O)c4ccccc4C)cc3)c2cc1OC : 78

# residual activity (compound: CCOc1nc(NC(=O)Cc2cc(OC)ccc2OC)cc(N)c1C#N ) is -6

Short answer for O=C1NC(=O)C(c2cn(CCCn3ccnc3)c3ccccc23)=C1Nc1ccccc1 : residual activity was 79

get_value(item= CC(C)c1nn(-c2c(Cl)cccc2Cl)c2nc(Cc3ccc(OCCO)cc3)[nH]c(=O)c12 , readout=residual activity) returns 94

====

ASSAYED_TARGET: Dual specificity tyrosine-phosphorylation-regulated kinase 2 (Homo sapiens) (UniProt Q92630)
Sequence (Q92630 whole entry): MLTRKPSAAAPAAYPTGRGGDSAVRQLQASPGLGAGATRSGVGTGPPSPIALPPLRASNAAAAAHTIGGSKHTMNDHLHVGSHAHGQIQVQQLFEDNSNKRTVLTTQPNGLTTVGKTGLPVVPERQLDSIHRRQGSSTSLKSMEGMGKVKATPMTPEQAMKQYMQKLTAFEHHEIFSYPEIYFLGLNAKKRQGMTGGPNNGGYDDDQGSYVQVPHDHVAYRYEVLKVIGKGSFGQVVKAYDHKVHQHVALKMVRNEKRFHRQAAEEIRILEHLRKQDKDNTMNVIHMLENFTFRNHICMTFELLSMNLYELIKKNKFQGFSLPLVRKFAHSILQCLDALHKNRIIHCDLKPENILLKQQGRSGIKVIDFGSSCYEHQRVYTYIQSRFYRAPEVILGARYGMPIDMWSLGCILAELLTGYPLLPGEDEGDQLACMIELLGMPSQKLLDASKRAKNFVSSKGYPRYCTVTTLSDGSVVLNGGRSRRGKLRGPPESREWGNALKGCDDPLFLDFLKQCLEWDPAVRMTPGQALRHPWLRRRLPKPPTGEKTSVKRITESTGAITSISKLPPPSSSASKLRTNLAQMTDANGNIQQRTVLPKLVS
PROTOCOL_CONDITIONS: at 1 µM
PARAMETER: residual activity (%)
Give the quantity in %, number only.

Lab note: measured residual activity of Nc1ncnc2c1cnn2-c1ccccc1 was 85

residual activity for CC(C)c1nn(-c2c(Cl)cccc2Cl)c2nc(Cc3ccc(OCCO)cc3)[nH]c(=O)c12 is 96

Note to self: residual activity recorded for N#C/C(=C\c1ccc(O)c(O)c1)C(=O)NCc1ccccc1 was 87

The compound listed as CC(C)[C@H](CO)Nc1nc(Nc2cc(N)cc(Cl)c2)c2ncn(C(C)C)c2n1 shows residual activity equal to 94

Item: O=C(Nc1nc2ccccc2n1CCN1CCOCC1)c1cccc([N+](=O)[O-])c1 | residual activity: 102

// O=C1Cc2c([nH]c3ccc([N+](=O)[O-])cc23)-c2ccccc2N1 : residual activity value = 54

====

Kindly state residual activity for each of the entries shown.
ASSAYED_TARGET: Mitogen-activated protein kinase 14 (Homo sapiens)
PROTOCOL_CONDITIONS: at 1 µM
State just the number; it will be interpreted in %.

Looking up N#C/C(=C\c1ccc(O)c(O)c1)C(=O)NCc1ccccc1 , I see its residual activity listed as 72

Looking up O=c1cc(N2CCOCC2)oc2c1ccc1ccccc12 , I found its residual activity recorded as 100

Entry under test: O=c1c(-c2ccc(F)cc2)c(-c2ccncc2)[nH]n1-c1ccc(Cl)cc1 . Its residual activity was 3

====

Provide the reported residual activity of each item.
ASSAYED_TARGET: Serine/threonine-protein kinase Chk1 (Homo sapiens) (UniProt O14757)
Sequence (O14757 whole entry): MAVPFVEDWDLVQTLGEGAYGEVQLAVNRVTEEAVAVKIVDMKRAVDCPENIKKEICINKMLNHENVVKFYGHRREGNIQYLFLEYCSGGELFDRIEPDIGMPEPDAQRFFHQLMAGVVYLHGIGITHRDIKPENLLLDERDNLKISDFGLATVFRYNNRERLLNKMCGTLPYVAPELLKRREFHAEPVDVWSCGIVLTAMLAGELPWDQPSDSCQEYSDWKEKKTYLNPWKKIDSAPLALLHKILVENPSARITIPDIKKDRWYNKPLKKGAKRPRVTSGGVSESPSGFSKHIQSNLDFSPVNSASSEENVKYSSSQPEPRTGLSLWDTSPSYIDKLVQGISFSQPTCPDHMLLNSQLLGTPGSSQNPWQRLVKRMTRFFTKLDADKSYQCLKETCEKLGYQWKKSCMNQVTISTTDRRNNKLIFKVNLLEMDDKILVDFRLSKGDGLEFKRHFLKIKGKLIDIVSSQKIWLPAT
PROTOCOL_CONDITIONS: at 1 µM
A number alone suffices; assume %.

Notebook: Cc1cc(C)c(/C=C2\C(=O)Nc3ccccc32)[nH]1 , residual activity read as 72

Record O=S(=O)(NCCNC/C=C/c1ccc(Br)cc1)c1cccc2cnccc12 , field residual activity: 81

get_value(item= O=C(Nc1nc2ccccc2n1CCN1CCOCC1)c1cccc([N+](=O)[O-])c1 , readout=residual activity) returns 85

According to the records, this compound NCCNc1ncc(C(N)=O)c(Nc2cccc(C(F)(F)F)c2)n1 displays residual activity of 66

Lab book: residual activity of O=C(c1ccccc1)c1ccc(N2CCOCC2)cc1O noted as 86

// recorded residual activity for O=C1Cc2c([nH]c3ccc([N+](=O)[O-])cc23)-c2ccccc2N1 : 39

// CN(C)S(=O)(=O)c1ccc2c(c1)/C(=C/c1cc3c([nH]1)CCCC3)C(=O)N2 : residual activity value = 77

# compound O=C(O)/C=C/c1cc(Br)c(Br)c(Br)c1Br ; its residual activity = 107

Note to self: residual activity recorded for CCCC(=O)Oc1ccc2[nH]c(C(=O)c3cc4ccccc4[nH]3)cc2c1 was 79

residual activity in this record for COc1cc2nccc(Oc3ccc(NC(=S)NC(=O)c4ccccc4C)cc3)c2cc1OC : 83

====

ASSAYED_TARGET: G protein-coupled receptor kinase 6 (Homo sapiens)
PROTOCOL_CONDITIONS: at 10 µM
Kindly supply the reported residual activity values for the records listed here.
Write down the numeric answer in % and omit the unit.

residual activity in this record for N#Cc1c(NC(=O)c2cccc3ccccc23)sc2c1CCCC2 : 90

GET /value?item= Nc1n[nH]c2nc3ccccc3nc12 &field=residual activity returns 85

For record O=C(NC(NC(=S)Nc1ccc(F)c([N+](=O)[O-])c1)C(Cl)(Cl)Cl)C(c1ccccc1)c1ccccc1 (stereo not given) the listed residual activity is 87

The reported residual activity of the compound COc1cc2nccc(Oc3ccc(NC(=S)NC(=O)c4ccccc4C)cc3)c2cc1OC was 79

The recorded residual activity for O=C1NC(=O)c2c1c1c3ccccc3[nH]c1n1cncc21 is 75

compound CCCC(=O)Oc1ccc2[nH]c(C(=O)c3cc4ccccc4[nH]3)cc2c1 , residual activity observed: 78

residual activity in this record for O=C(O)/C=C/c1cc(Br)c(Br)c(Br)c1Br : 84

The compound identified as CC(C)c1nn(-c2c(Cl)cccc2Cl)c2nc(Cc3ccc(OCCO)cc3)[nH]c(=O)c12 registered its residual activity at 86

residual activity in this record for O=c1cc(N2CCOCC2)oc2c1ccc1ccccc12 : 92

Kindly note the recorded residual activity for O=C(CCCc1ccc(-c2ccccc2F)cc1)Nc1ccc(O)cc1 , which is 90

Reported residual activity for NCCNc1ncc(C(N)=O)c(Nc2cccc(C(F)(F)F)c2)n1 was 73

CCOC(=O)c1c(C)[nH]c(/C=C2\C(=O)Nc3ccccc32)c1C has a reported residual activity of 94

Entry Nc1ncnc2c1c(-c1ccc(Oc3ccccc3)cc1)cn2C1CCCC1 — recorded residual activity = 73

Entry CCCCc1c(-c2ccc(O)cc2)[nH]c2nccnc12 ; residual activity = 90

get_value(item= NC(=O)Nc1sc(-c2ccc(F)cc2)cc1C(N)=O , readout=residual activity) returns 74

O=C(c1cc2cc(O)ccc2[nH]1)c1cc2cc(O)ccc2[nH]1 has a reported residual activity of 78

response.value for O=C(c1ccccc1)c1ccc(N2CCOCC2)cc1O (field: residual activity) = 88

Noted for CC(C)[C@H](CO)Nc1nc(Nc2cc(N)cc(Cl)c2)c2ncn(C(C)C)c2n1 : its residual activity reads 40

Noted for Nc1ncnc2[nH]nc(Nc3ccc(F)cc3)c12 : its residual activity reads 97

// residual activity lookup, compound = O=c1cc(N2CCNCC2)oc2c(-c3ccccc3)cccc12 , result: 84
